test system: Plasmodium berghei; assay: Luciferase/luciferin-expressing antifolate-resistant parasites were used to infect a culture of HepG2 cells that were pre-incubated with compounds. Infected hepatocytes emit light due to the luciferase reaction. Assay results are presented as the percent inhibition of light emission compared to control. […]; type: functional; conditions: sporozoite, HEPG2TOX_HILL_SLOPE 2.58, HEPG2TOX_R_SQUARED 0.97, PBLUC_HILL_SLOPE 17.4, PBLUC_R_SQUARED 0.0851, read-out: LUCIFERASE INFECTION ASSAY - IC50
PROPERTY_NAME: pIC50
Units for pIC50: none; it is -log10 of a concentration expressed in mol/L.

Data request, read-out pIC50, for `COc1ccc(CN2CCN(c3ncc(C(=O)Nc4ccc5c(c4)OCO5)s3)C2=O)cc1`
5.44

###

system: Plasmodium berghei; assay: Luciferase/luciferin-expressing antifolate-resistant parasites were used to infect a culture of HepG2 cells that were pre-incubated with compounds. Infected hepatocytes emit light due to the luciferase reaction. Assay results are presented as the percent inhibition of light emission compared to control. […]; type: functional; settings: sporozoite, FFLUC_HILL_SLOPE 1.97, FFLUC_R_SQUARED 0.686, HEPG2TOX_HILL_SLOPE 15.6, HEPG2TOX_R_SQUARED 0.779, read-out: LUCIFERASE INFECTION ASSAY - IC50
PROPERTY_NAME: IC50

Could you share which IC50 value was measured for `O=C(Nc1cccc(C(F)(F)F)c1)OCCSc1ccc([N+](=O)[O-])c2nonc12` ?
> 7.7 µM

###

test system: Plasmodium berghei; assay: Luciferase/luciferin-expressing antifolate-resistant parasites were used to infect a culture of HepG2 cells that were pre-incubated with compounds. Infected hepatocytes emit light due to the luciferase reaction. Assay results are presented as the percent inhibition of light emission compared to control. […]; assay type: functional; settings: sporozoite, FFLUC_HILL_SLOPE 1.03, FFLUC_R_SQUARED 0.0461, HEPG2TOX_HILL_SLOPE 15.2, HEPG2TOX_R_SQUARED 0.946, PBLUC_HILL_SLOPE 1.65, PBLUC_R_SQUARED 0.631, read-out: LUCIFERASE INFECTION ASSAY - IC50
PROPERTY_NAME: IC50 (nM)
Kindly provide the numeric value in nM only, without the unit symbol.

What value of IC50 has been reported for the following compound? `O=C1C(=O)N(Cc2ccccc2F)c2c1cccc2C(F)(F)F`
2980

###

tested on: Plasmodium berghei; test: Luciferase/luciferin-expressing antifolate-resistant parasites were used to infect a culture of HepG2 cells that were pre-incubated with compounds. Infected hepatocytes emit light due to the luciferase reaction. Assay results are presented as the percent inhibition of light emission compared to control. […]; assay type: functional; settings: sporozoite, HEPG2TOX_HILL_SLOPE 0.15, HEPG2TOX_R_SQUARED 0.654, PBLUC_HILL_SLOPE 0.762, PBLUC_R_SQUARED 0.254, read-out: LUCIFERASE INFECTION ASSAY - IC50
PROPERTY_NAME: IC50

Which IC50 is reported with Plasmodium berghei for this entry: `NC(=O)c1cccc(-c2cn3c(-c4ccccc4)cnc3cn2)c1` ?
> 10.5 µM

###

system: Plasmodium berghei; assay: Luciferase/luciferin-expressing antifolate-resistant parasites were used to infect a culture of HepG2 cells that were pre-incubated with compounds. Infected hepatocytes emit light due to the luciferase reaction. Assay results are presented as the percent inhibition of light emission compared to control. […]; assay type: functional; conditions: sporozoite, HEPG2TOX_HILL_SLOPE 7.23, HEPG2TOX_R_SQUARED 0.37, PBLUC_HILL_SLOPE 1.96, PBLUC_R_SQUARED 0.792, read-out: LUCIFERASE INFECTION ASSAY - IC50
PROPERTY_NAME: IC50 (nM)
Expressed in nM, but write only the number.

Given the compound `CCC(=O)NC1=C(Nc2ccc(SC(F)F)cc2)C(=O)c2ccccc2C1=O` , what is its reported IC50?
1470
